Biological target: T1, HER2-ECD-His (human, UniProt P04626 23-652)
T1 construct: extracellular domain; also called HER2-His; HER2-ECD-His protein; not shown: His tag
Experiment: SPR (Biacore, CM5), IgG captured by anti-human IgG, HER2-ECD-His as analyte
Property: kon (M⁻¹ s⁻¹)
Write the answer as a number in M⁻¹ s⁻¹, unit excluded.

Please review the entries below; each comes with its answer.
Binder: hz39D2.23 (antibody, human IgG1, kappa, V domains shown) VH: QVQLVQSGSELKKPGASVKVSCKASGYTFTNYGVNWVRQAPGQGLEWMGWINTHTGEPTYAEEFKGRFVFSLDTSVSTAYLQISSLKAEDTAVYYCARDEYYVRVDYWGQGTTVTVSS VL: DIQMTQSPSSLSASVGDRVTITCKASQDINSYLSWFQQKPGKAPKTLIYRANRLVDGVPSRFSGSGSGQDYTLTISSLQPEDFATYYCLQLDEFPWTFGQGTKVEIKR
kon, M⁻¹ s⁻¹: 71000
//
Binder: hz39D2.22 (antibody, V domains shown) VH: QVQLVQSGSELKKPGASVKVSCKASGYTFTNYGVNWVRQAPGQGLEWMGWINTHTGEPTYAEEFKGRFVFSLDTSVSTAYLQISSLKAEDTAVYYCARDEYYVRVDYWGQGTTVTVSS VL: DIQMTQSPSSLSASVGDRVTITCKASQDINSYLSWFQQKPGKAPKTLIYRANRLVDGVPSRFSGSGSGQDYTLTISSLQPEDFATYYCLELDEFPWTFGQGTKVEIK
kon, M⁻¹ s⁻¹: 81000
//
Binder: hz39D2 (antibody, V domains shown, Humanized antibody, captured as IgG by anti-human IgG in SPR; also called humanized 39D2 antibody) VH: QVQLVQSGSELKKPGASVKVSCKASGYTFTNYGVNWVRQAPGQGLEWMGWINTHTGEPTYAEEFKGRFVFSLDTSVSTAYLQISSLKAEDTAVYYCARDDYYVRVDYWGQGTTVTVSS VL: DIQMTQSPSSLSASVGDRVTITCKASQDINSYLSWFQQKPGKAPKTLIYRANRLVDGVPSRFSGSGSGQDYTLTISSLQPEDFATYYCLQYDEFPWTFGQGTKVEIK
kon, M⁻¹ s⁻¹: 68000

Lab note: next binder to report on.
Ask: What does the data say about its kon? Entry: hz39D2.14 (antibody, V domains shown) VH: QVQLVQSGSELKKPGASVKVSCKASGYTFTNYGVNWVRQAPGQGLEWMGWINTHTGEPTYAEEFKGRFVFSLDTSVSTAYLQISSLKAEDTAVYYCARDEYYVRTDYWGQGTTVTVSS VL: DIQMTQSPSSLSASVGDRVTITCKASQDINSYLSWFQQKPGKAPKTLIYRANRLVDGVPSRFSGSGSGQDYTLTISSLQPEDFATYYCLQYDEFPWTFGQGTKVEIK
Reply: 37000
